Ref: paper PMC9030932

- Target Under Test: human dopamine transporter (hDAT) (Homo sapiens)
- Sequence (Q01959 whole entry): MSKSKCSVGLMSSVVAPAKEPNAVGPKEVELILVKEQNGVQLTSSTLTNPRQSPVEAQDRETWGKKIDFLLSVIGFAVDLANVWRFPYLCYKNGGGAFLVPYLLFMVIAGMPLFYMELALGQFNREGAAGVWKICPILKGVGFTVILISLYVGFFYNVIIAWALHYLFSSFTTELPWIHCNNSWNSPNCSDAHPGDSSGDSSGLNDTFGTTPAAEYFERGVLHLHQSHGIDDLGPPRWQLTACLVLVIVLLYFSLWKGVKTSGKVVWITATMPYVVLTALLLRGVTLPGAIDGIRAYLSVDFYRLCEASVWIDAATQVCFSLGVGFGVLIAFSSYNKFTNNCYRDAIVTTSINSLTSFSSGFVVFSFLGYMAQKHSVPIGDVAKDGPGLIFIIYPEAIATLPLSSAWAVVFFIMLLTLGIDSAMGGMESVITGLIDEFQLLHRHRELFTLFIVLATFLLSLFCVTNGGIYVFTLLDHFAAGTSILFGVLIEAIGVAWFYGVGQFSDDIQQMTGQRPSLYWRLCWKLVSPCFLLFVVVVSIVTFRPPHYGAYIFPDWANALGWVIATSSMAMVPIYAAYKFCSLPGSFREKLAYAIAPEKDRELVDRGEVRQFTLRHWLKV
- Method: Neurotransmitter transporter uptake assay, HEK-hDAT
- Type: cell-based
- Measurement Parameters: read-out: % Inhibition at 10 μM hDAT
Listed here: items and their measured inhibition at 10 µM.

Input line: Give the reported inhibition at 10 µM for this compound. COc1ccc2[nH]cc(CCNC(=O)CCCCCCNC3c4ccccc4N(C)S(=O)(=O)c4cc(Cl)ccc43)c2c1 (stereo not shown) [Compound 13]
Output line: 25.6%

Input line: Please list inhibition at 10 µM recorded for the compound Fc1ccc(C(OCCN2CCN(CCCc3ccccc3)CC2)c2ccc(F)cc2)cc1 [GBR12909, reference compound]
Output line: 85.9%

Input line: Give me measured inhibition at 10 µM, please, for this compound: CN1c2ccccc2C(NCC(=O)NCCc2c[nH]c3ccc(O)cc23)c2ccc(Cl)cc2S1(=O)=O (stereo not shown) [Compound 11a]
Output line: 33.2%

* * *

- Target Under Test: human norepinephrine transporter (hNET) (Homo sapiens, UniProt P23975)
- Sequence (P23975 whole entry): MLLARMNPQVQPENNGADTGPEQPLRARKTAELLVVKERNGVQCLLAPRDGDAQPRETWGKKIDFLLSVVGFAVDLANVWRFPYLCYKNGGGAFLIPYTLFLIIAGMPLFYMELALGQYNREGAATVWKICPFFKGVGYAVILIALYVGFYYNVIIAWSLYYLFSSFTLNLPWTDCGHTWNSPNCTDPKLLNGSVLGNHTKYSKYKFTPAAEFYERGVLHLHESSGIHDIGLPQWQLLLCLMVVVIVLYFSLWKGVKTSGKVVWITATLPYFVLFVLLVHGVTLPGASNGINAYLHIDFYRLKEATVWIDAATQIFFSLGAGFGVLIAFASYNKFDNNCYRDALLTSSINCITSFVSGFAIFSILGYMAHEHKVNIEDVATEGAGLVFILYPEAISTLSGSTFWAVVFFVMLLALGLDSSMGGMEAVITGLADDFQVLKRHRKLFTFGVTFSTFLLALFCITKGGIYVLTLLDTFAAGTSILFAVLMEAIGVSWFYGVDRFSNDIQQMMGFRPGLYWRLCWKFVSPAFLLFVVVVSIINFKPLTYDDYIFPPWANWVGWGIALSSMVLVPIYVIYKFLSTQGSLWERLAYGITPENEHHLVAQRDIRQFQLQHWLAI
- Method: Neurotransmitter transporter uptake assay, HEK-hNET
- Type: cell-based
- Measurement Parameters: 10 μM, HEK-hNET, mean ± SEM, n = 3–6; read-out: % Inhibition at 10 μM hNET
Catalogue of inhibition at 10 µM readings, one per entry.
Reply with just the number (in %).

Completed entries (count: 4):
# Compound, Measurement Unit, inhibition at 10 µM
data = [
    ("CN(CCCCCCCNC1c2ccccc2N(C)S(=O)(=O)c2cc(Cl)ccc21)CCC(Oc1ccc(C(F)(F)F)cc1)c1ccccc1 (centres unmarked) [Compound 26]", "%", 7.07),
    ("CN1c2ccccc2C(NCCc2c[nH]c3ccc(O)cc23)c2ccc(Cl)cc2S1(=O)=O (centres unmarked) [Compound 7]", "%", 30.8),
    ("CN1c2ccccc2C(NCCCCCCCNCCc2c[nH]c3ccc(C#N)cc23)c2ccc(Cl)cc2S1(=O)=O (centres unmarked) [Compound 27]", "%", 63.6),
    ("CN1c2ccccc2C(NCCCCCCC(=O)NCCc2c[nH]c3ccccc23)c2ccc(Cl)cc2S1(=O)=O (centres unmarked) [Compound 14]", "%", 65.2),
]

Input line: Determine from records and report inhibition at 10 µM for CN1c2ccccc2C(NCCCC(=O)NCCc2c[nH]c3ccc(O)cc23)c2ccc(Cl)cc2S1(=O)=O (centres unmarked) [Compound 11c]
Output line: 24.3

Input line: Let me know recorded inhibition at 10 µM for COc1ccc2[nH]cc(CCNC(=O)CCCCCCNC3c4ccccc4N(C)S(=O)(=O)c4cc(Cl)ccc43)c2c1 (centres unmarked) [Compound 13] , thanks.
Output line: 23.7

Input line: Indicate the recorded inhibition at 10 µM value for this compound: CN1c2ccccc2C(NCCC(=O)NCCc2c[nH]c3ccc(O)cc23)c2ccc(Cl)cc2S1(=O)=O (centres unmarked) [Compound 11b]
Output line: 54.8

Input line: Look up and state reported inhibition at 10 µM for CN1c2ccccc2C(NCCCCCCCC=CCc2c[nH]c3ccccc23)c2ccc(Cl)cc2S1(=O)=O (centres unmarked) [Compound 21]
Output line: 5.64

Input line: Supply recorded inhibition at 10 µM for CN1c2ccccc2C(NCCCCCCCCCCc2c[nH]c3ccccc23)c2ccc(Cl)cc2S1(=O)=O (centres unmarked) [Compound 22] here.
Output line: 5.56

Input line: Output measured inhibition at 10 µM for this item: CN1c2ccccc2C(NCCCCC(=O)NCCc2c[nH]c3ccc(O)cc23)c2ccc(Cl)cc2S1(=O)=O (centres unmarked) [Compound 11d]
Output line: 21.1
